# Assay procedure: Blood Brain Barrier penetration (brain-to-plasma distribution)
# Type: in vivo
# Condition: male CD mice, subcutaneous 10 mg/kg, 30 min
Measurement kind: Plasma concentration after 30 minutes

C[C@@H]1CN(Cc2ncccn2)C[C@H]1c1cn2c(C3CCOCC3)ncc2c(=O)[nH]1 (single isomer, unassigned) [Compound (P3, enantiomer 1)]    30 min.: 1620 ng/mL
O=c1[nH]c(CN2CC(Oc3ccncc3)C2)cn2c(-c3ccc(F)cc3)ncc12 [Compound (P1)]    30 min.: 719 ng/mL
O=c1[nH]c(CN2CC(Oc3cccnc3)C2)cn2c(C3CCOCC3)ncc12 [Compound (P2)]    30 min.: 715 ng/mL

Look up Plasma concentration after 30 minutes for this compound: "O=c1[nH]c(CN2CC(OCc3ccc(F)cc3)C2)nn2c(C3CCOCC3)ncc12"
30 min.: 3380 ng/mL

###

# Assay procedure: Blood Brain Barrier penetration (brain-to-plasma distribution)
# Format: in vivo
# Condition: male CD mice, subcutaneous 10 mg/kg, 120 min
Measurement kind: Plasma concentration after 120 minutes

Here's what some known entries look like.
O=c1[nH]c(CN2CC(Oc3cccnc3)C2)cn2c(C3CCOCC3)ncc12 [Compound (P2)]    120 min.: 11 ng/mL
C[C@@H]1CN(Cc2ncccn2)C[C@H]1c1cn2c(C3CCOCC3)ncc2c(=O)[nH]1 (single isomer, unassigned) [Compound (P3, enantiomer 1)]    120 min.: 226 ng/mL
O=c1[nH]c(CN2CC(Oc3ccncc3)C2)cn2c(-c3ccc(F)cc3)ncc12 [Compound (P1)]    120 min.: 86 ng/mL

Proceed to the following item.
Query: Plasma concentration after 120 minutes; subject: O=c1[nH]c(CN2CC(OCc3ccc(F)cc3)C2)nn2c(C3CCOCC3)ncc12 [Compound (P4)]
120 min. 352 ng/mL

###

# Assay procedure: Blood Brain Barrier penetration (brain-to-plasma distribution)
# Type: in vivo
# Condition: male CD mice, subcutaneous 10 mg/kg, 30 min
Reported Brain concentration after 30 minutes values for the following compounds.

# example entries with known answers
O=c1[nH]c(CN2CC(OCc3ccc(F)cc3)C2)nn2c(C3CCOCC3)ncc12    30 min.: 125 ng/mL
O=c1[nH]c(CN2CC(Oc3ccncc3)C2)cn2c(-c3ccc(F)cc3)ncc12 [Compound (P1)]    30 min.: 42 ng/mL

Here is another compound to look at.
Which Brain concentration after 30 minutes is reported for this compound? C[C@@H]1CN(Cc2ncccn2)C[C@H]1c1cn2c(C3CCOCC3)ncc2c(=O)[nH]1 (single isomer, unassigned) [Compound (P3, enantiomer 1)]
30 min.: 67 ng/mL

###

# Assay procedure: Blood Brain Barrier penetration (brain-to-plasma distribution)
# Assay type: in vivo
# Condition: mouse, brain/plasma, sc; male CD mice, subcutaneous 10 mg/kg, 30 min; read-out: Brain/Plasma ratio after 30 minutes
Measurement kind: Kp at 0.5 h
Give the figure by itself; no unit, no explanation.

O=c1[nH]c(CN2CC(Oc3ccncc3)C2)cn2c(-c3ccc(F)cc3)ncc12 [Compound (P1)]    0.06

Consider now this further compound.
Form field: reported Kp at 0.5 h of C[C@@H]1CN(Cc2ncccn2)C[C@H]1c1cn2c(C3CCOCC3)ncc2c(=O)[nH]1 (single isomer, unassigned) [Compound (P3, enantiomer 1)]
0.04
